- method_description: Cytotoxicity against human HEK293 cells assessed as inhibition of cell viability at 80 uM measured after 66 hrs by Alamar Blue dye based fluorescence analysis
- Assay type: toxicity
- condition_info: read-out: INH
measure: cytotoxicity at 66 h, 80 µM (%)

[
  {
    "smiles_string": "CC(C)=CCCc1cnc2c(C)cc(OC3CCCCC3)c3c2c1CC[C@H]3C",
    "measurement_unit": "%",
    "val": 23
  },
  {
    "smiles_string": "CC(C)=CCCc1cnc2c(C)cc(OCc3cccc(Cl)c3)c3c2c1CC[C@H]3C",
    "measurement_unit": "%",
    "val": 65
  },
  {
    "smiles_string": "CC(C)=CCCc1cnc2c(C)cc(O)c3c2c1[C@H](O)C[C@H]3C",
    "measurement_unit": "%",
    "val": 14
  },
  {
    "smiles_string": "CC(C)=CCCc1cnc2c(C)cc(O)c3c2c1CC[C@H]3C",
    "measurement_unit": "%",
    "val": 92
  },
  {
    "smiles_string": "CC(C)=CCCc1cnc2c(C)cc(OCc3cccc([N+](=O)[O-])c3)c3c2c1CC[C@H]3C",
    "measurement_unit": "%",
    "val": 7
  },
  {
    "smiles_string": "CC(C)=CCCc1cnc2c(C)cc(OCc3ccccc3-c3ccccc3)c3c2c1CC[C@H]3C",
    "measurement_unit": "%",
    "val": 94
  },
  {
    "smiles_string": "C=CCOc1cc(C)c2ncc(CCC=C(C)C)c3c2c1[C@H](C)CC3",
    "measurement_unit": "%",
    "val": 85
  },
  {
    "smiles_string": "CC(C)=CCCc1cnc2c(C)cc(OC3CCCC3)c3c2c1CC[C@H]3C",
    "measurement_unit": "%",
    "val": 83
  }
]

* * *

- method_description: Cytotoxicity against human HEK293 cells assessed as inhibition of cell viability measured after 66 hrs by Alamar Blue dye based fluorescence analysis
- Assay type: toxicity

[
  {
    "smiles_string": "CC(C)=CCCc1cnc2c(C)cc(OCc3ccc(Br)cc3)c3c2c1CC[C@H]3C",
    "IC50 at 66 h [µM]": 40.7
  },
  {
    "smiles_string": "CC(C)=CCCc1cnc2c(C)cc(OCc3cccc(Br)c3)c3c2c1CC[C@H]3C",
    "IC50 at 66 h [µM]": 39.3
  },
  {
    "smiles_string": "COc1ccc(C[C@H](N)C(=O)N[C@H]2[C@@H](O)[C@H](n3cnc4c(N(C)C)ncnc43)O[C@@H]2CO)cc1",
    "IC50 at 66 h [µM]": 0.49
  },
  {
    "smiles_string": "CC(C)=CCCc1cnc2c(C)cc(OCc3ccccc3)c3c2c1CC[C@H]3C",
    "IC50 at 66 h [µM]": 30.8
  },
  {
    "smiles_string": "CC(C)=CCCc1cnc2c(C)cc(OCc3cc(F)ccc3F)c3c2c1CC[C@H]3C",
    "IC50 at 66 h [µM]": 31.4
  }
]

Entry source: ChEMBL document CHEMBL5385927
